Cited source: patent US20180194862A1

- target_desc: T1, mesothelin on cells (endogenous on SN12C, OVCAR3, SW1990); HEK293 cells expressing cell-surface human … (human, UniProt Q13421 296-598)
- T1 construct: whole, on cells; also called cell-surface MSLN
- test_method_notes: FACS, SN12C (CA125-)
I'd appreciate it if you could supply Maximum binding (MFI) values for the items below.
Answer as a quantity: numeral, then unit.

Here is how some binders turned out for Maximum binding (MFI).
| binder | Maximum binding (MFI) |
| --- | --- |
| HuAM15 (antibody, V domains shown, fully human antibody) VH: EVQLVQSGAEVKKPGASVKVSCKASGDTFKRYYVHWVRQAPGQGLEWMGIINPSGVSTTYAQKFQGRVTMTRDTSTSTVYMELSSLRSEDTAVYYCAEVRGSGFNYFGMDVWGQGTLVTVSS VL: SYELTQPPSVSVSPGQTASITCSGDKLGDKYASWYQQKPGQSPVLVIYQDNRRPSGIPERFSGSNSGNTATLTISGTQAMDEADYYCQAWDSDTYVFGTGTKVTVL | 9390 MFI |
| HuAM14 (antibody, V domains shown, fully human antibody) VH: EVQLVQSGAEVKKPGASVKVSCKASGDTFKRYYMHWVRQAPGQGLEWMGIINPSGVSTTYAQKFQGRVTMTRDTSTSTVYMELSSLRSEDTAVYYCAEVRGSGFNYFGMDVWGQGTLVTVSS VL: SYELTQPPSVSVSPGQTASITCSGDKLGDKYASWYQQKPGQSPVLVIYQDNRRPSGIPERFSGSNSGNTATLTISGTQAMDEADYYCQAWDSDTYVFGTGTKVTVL | 9800 MFI |

Here is the next item to consider.
Report measured Maximum binding (MFI); entry is HuAM13 (antibody, V domains shown, fully human antibody) VH: EVQLVQSGAEVKKPGASVKVSCKASGDTFNRYYVQWVRQAPGQGLEWMGIINPSGVSTTYAQKFQGRVTMTRDTSTSTVYMELSSLRSEDTAVYYCAETRGSGFNYFGMDVWGQGTLVTVSS VL: SYELTQPPSVSVSPGQTASITCSGDKLGDKYASWYQQKPGQSPVLVIYQDNRRPSGIPERFSGSNSGNTATLTISGTQAMDEADYYCQVWDSDTYVFGTGTKVTVL 9870 MFI
